Below, each of the compounds is paired with its reported pIC50 value.
- TARGET_UNDER_TEST: hNGAL (human lipocalin 2, parent wild type SEQ ID NO: 1) mutein SEQ ID NO: 39 (Homo sapiens, UniProt P80188, A60R/C107S/D97A/I61W/K145T/K154E/K93L/L123P/L56F/L90N/N116R/Q48H/Q69I/R101S/R92W/S147I/S88Q/W99S/Y120I/Y126E/Y152F)
- Sequence (P80188 other isoform, or with tags, fused parts or gaps with the stated changes): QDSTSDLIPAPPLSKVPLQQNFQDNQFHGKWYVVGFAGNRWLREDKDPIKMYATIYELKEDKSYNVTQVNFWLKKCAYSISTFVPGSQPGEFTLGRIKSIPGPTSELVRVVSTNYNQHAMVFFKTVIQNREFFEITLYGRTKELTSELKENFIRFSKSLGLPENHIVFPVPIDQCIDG
- PROTOCOL_CONDITIONS: solution binding ELISA
Schema: pIC50 number; meaning minus log10 of the concentration expressed in molar units.

[
  {
    "COMPOUND": "NC(=O)CC[C@H](NC(=O)[C@H](CCCN([O-])C=O)NC(=O)[C@@H]1CCN=C([C@@H](CO)NC(=O)[C@@H]2CCNc3c(NC(=O)C(=O)CCC(=O)O)cc4cc([O-])c([O-])cc4[n+]32)N1)C(=O)N[C@H](CCC(N)=O)C(=O)N[C@H](CCCN([O-])C=O)C(=O)NCC(=O)O.[Fe+3] [Pvd III aKG (+Fe), Pvd type III α-ketoglutaryl]",
    "pIC50": 7.64
  },
  {
    "COMPOUND": "NC(=O)CC[C@H](NC(=O)[C@H](CCCN(O)C=O)NC(=O)[C@@H]1CCN=C([C@@H](CO)NC(=O)[C@@H]2CCNc3c(NC(=O)C(=O)CCC(=O)O)cc4cc(O)c(O)cc4[n+]32)N1)C(=O)N[C@H](CCC(N)=O)C(=O)N[C@H](CCCN(O)C=O)C(=O)NCC(=O)O [Pvd III aKG (−Fe), Pvd type III α-ketoglutaryl]",
    "pIC50": 7.64
  },
  {
    "COMPOUND": "NC(=O)CCC(=O)Nc1cc2cc(O)c(O)cc2[n+]2c1NCC[C@H]2C(=O)N[C@H](CO)C1=NCC[C@@H](C(=O)N[C@@H](CCCN(O)C=O)C(=O)N[C@@H](CCC(N)=O)C(=O)N[C@H](CCC(N)=O)C(=O)N[C@H](CCCN(O)C=O)C(=O)NCC(=O)O)N1 [Pvd III sa (−Fe), Pvd type III succinamide]",
    "pIC50": 7.03
  }
]

Item under review: NC(=O)CCC(=O)Nc1cc2cc([O-])c([O-])cc2[n+]2c1NCC[C@H]2C(=O)N[C@H](CO)C1=NCC[C@@H](C(=O)N[C@@H](CCCN([O-])C=O)C(=O)N[C@@H](CCC(N)=O)C(=O)N[C@H](CCC(N)=O)C(=O)N[C@H](CCCN([O-])C=O)C(=O)NCC(=O)O)N1.[Fe+3] [Pvd III sa (+Fe), Pvd type III succinamide] . Reported pIC50?
6.83

###

Below, each entry is listed with its recorded IC50.
- TARGET_UNDER_TEST: Fusion molecule SEQ ID NO: 134 (hNGAL muteins SEQ ID NOs: 36, 16, 53 and 62) (Homo sapiens, UniProt P80188, A60T/C107S/D97H, form not given/K145I/K154W/K93R/L123T/L56V/L90R/N85D/Q69G/R101D/R92I/S147R/S88D/T74A/W99Y/Y126Q/Y152I/Y72N)
- Construct: made in house
- Sequence (P80188 with tags, fused parts or gaps with the stated changes, form open): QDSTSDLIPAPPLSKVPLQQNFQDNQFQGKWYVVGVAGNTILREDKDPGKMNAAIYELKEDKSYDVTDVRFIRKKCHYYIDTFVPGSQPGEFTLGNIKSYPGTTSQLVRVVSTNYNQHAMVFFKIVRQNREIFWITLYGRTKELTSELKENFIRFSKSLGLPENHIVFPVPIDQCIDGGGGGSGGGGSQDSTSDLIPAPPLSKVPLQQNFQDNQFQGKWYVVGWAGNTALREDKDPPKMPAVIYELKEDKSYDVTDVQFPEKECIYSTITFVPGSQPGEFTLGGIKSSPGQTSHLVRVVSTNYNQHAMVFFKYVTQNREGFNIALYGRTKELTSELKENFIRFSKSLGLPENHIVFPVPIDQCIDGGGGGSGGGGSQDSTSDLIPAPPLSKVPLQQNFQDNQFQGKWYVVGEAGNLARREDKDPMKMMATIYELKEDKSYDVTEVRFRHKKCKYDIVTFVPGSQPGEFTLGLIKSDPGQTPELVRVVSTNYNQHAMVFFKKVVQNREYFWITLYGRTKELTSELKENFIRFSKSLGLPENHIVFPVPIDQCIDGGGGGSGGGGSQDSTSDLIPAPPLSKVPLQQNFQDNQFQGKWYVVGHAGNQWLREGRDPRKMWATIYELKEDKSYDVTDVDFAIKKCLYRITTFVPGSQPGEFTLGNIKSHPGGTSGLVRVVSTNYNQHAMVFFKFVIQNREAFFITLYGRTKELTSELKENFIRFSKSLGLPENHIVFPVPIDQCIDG
- ASSAY: Solution binding ELISA
- PROTOCOL_CONDITIONS: binding to target in solution, tracer 0.1 nM, Table 11
Starred links: 1 amine or outer side, 2 acyl side, 3 side chain; linkers in the order of their positions; H or OH if unused. Non-standard residues stand in square brackets, D forms with d. Residues, ends and D or L forms follow the SMILES beside them. *: point of attachment. X1 = O=C([C@@H]1CCNc2c(N[*:1])cc3cc(O)c(O)cc3[n+]21)[*:2]; dOrn(N5-OH,N5-CHO) = N[C@H](CCCN(O)C=O)C(=O)O; Butanoyl(2-oxo,4-COOH) = O=C(O)CCC(=O)C(=O)*; d(aThr) = C[C@@H](O)[C@@H](N)C(=O)O; X2 = O=C1[C@@H](N*)CCCN1[O-]; X3 = O=C1[C@@H](N*)CCCN1O; Orn = NCCC[C@H](N)C(=O)O

Study these solved cases before continuing.
[
  {
    "MOLECULE": "C[C@@H](O)[C@@H](NC(=O)CNC(=O)[C@H](CCCN)NC(=O)[C@@H](CCCN(O)C=O)NC(=O)[C@@H](CO)NC(=O)[C@@H]1CCNc2c(NC(=O)C(=O)CCC(=O)O)cc3cc(O)c(O)cc3[n+]21)C(=O)N[C@@H](CO)C(=O)N[C@H]1CCCN(O)C1=O [Pvd II aKG (−Fe), Pvd type II α-ketoglutaryl] ({Butanoyl(2-oxo,4-COOH)}-[X1][dS][dOrn(N5-OH,N5-CHO)][Orn]G[d(aThr)]S-X3)",
    "IC50": "0.81 nM"
  },
  {
    "MOLECULE": "NC(=O)CC[C@H](NC(=O)[C@H](CCCN(O)C=O)NC(=O)[C@@H]1CCN=C([C@@H](CO)NC(=O)[C@@H]2CCNc3c(NC(=O)C(=O)CCC(=O)O)cc4cc(O)c(O)cc4[n+]32)N1)C(=O)N[C@H](CCC(N)=O)C(=O)N[C@H](CCCN(O)C=O)C(=O)NCC(=O)O [Pvd III aKG (−Fe), Pvd type III α-ketoglutaryl]",
    "IC50": "0.7 nM"
  }
]

Could you tell me which IC50 is on file for C[C@@H](O)[C@@H](NC(=O)CNC(=O)[C@H](CCCN)NC(=O)[C@@H](CCCN([O-])C=O)NC(=O)[C@@H](CO)NC(=O)[C@@H]1CCNc2c(NC(=O)C(=O)CCC(=O)O)cc3cc([O-])c([O-])cc3[n+]21)C(=O)N[C@@H](CO)C(=O)N[C@H]1CCCN([O-])C1=O.[Fe+3] [Pvd II aKG (+Fe), Pvd type II α-ketoglutaryl] ({Butanoyl(2-oxo,4-COOH)}-[X1][dS][dOrn(N5-OH,N5-CHO)][Orn]G[d(aThr)]S-X2) ?
0.88 nM

Next record, please: NC(=O)CC[C@H](NC(=O)[C@H](CCCN([O-])C=O)NC(=O)[C@@H]1CCN=C([C@@H](CO)NC(=O)[C@@H]2CCNc3c(NC(=O)C(=O)CCC(=O)O)cc4cc([O-])c([O-])cc4[n+]32)N1)C(=O)N[C@H](CCC(N)=O)C(=O)N[C@H](CCCN([O-])C=O)C(=O)NCC(=O)O.[Fe+3] [Pvd III aKG (+Fe), Pvd type III α-ketoglutaryl]
0.58 nM

Proceed to NC(=O)CCC(=O)Nc1cc2cc([O-])c([O-])cc2[n+]2c1NCC[C@H]2C(=O)N[C@H](CO)C1=NCC[C@@H](C(=O)N[C@@H](CCCN([O-])C=O)C(=O)N[C@@H](CCC(N)=O)C(=O)N[C@H](CCC(N)=O)C(=O)N[C@H](CCCN([O-])C=O)C(=O)NCC(=O)O)N1.[Fe+3] [Pvd III sa (+Fe), Pvd type III succinamide]
0.31 nM

Continue with NC(=O)CCC(=O)Nc1cc2cc(O)c(O)cc2[n+]2c1NCC[C@H]2C(=O)N[C@H](CO)C1=NCC[C@@H](C(=O)N[C@@H](CCCN(O)C=O)C(=O)N[C@@H](CCC(N)=O)C(=O)N[C@H](CCC(N)=O)C(=O)N[C@H](CCCN(O)C=O)C(=O)NCC(=O)O)N1 [Pvd III sa (−Fe), Pvd type III succinamide]
0.27 nM
